// provenance: patent US7776899B2

# Assay: physchem
# Protocol Conditions: pH 4.35, aqueous buffer, thermodynamic from solid, In Solution (solubility in mixture)
Counter-ions that a name gives are not always drawn.
Observed Property: solubility

solubility in this record for COc1ccc(Cc2nccc3cc(OC)c(OC)cc23)cc1OC [Papaverine, papaverine hydrochloride] : 7750 µg/mL

---

# Assay: physchem
# Protocol Conditions: pH 7.65, aqueous buffer, thermodynamic from solid, In Solution (solubility in mixture)
Structures can show the parent of a compound that is named as a salt.
Observed Property: solubility (µg/mL)
Give the value, in units of µg/mL, as a plain number.

solubility in this record for COc1ccc(Cc2nccc3cc(OC)c(OC)cc23)cc1OC [Papaverine, papaverine hydrochloride] : 200

---

# Assay: physchem
# Protocol Conditions: pH 3.91, aqueous buffer, thermodynamic from solid, In Solution (solubility in mixture)
Counter-ions that a name gives are not always drawn.
Observed Property: solubility (mg/mL)
Give the value, in units of mg/mL, as a plain number.

solubility in this record for COc1ccc(Cc2nccc3cc(OC)c(OC)cc23)cc1OC [Papaverine, papaverine hydrochloride] : 36.8

---

# Assay: physchem
# Protocol Conditions: pH 3.91, aqueous buffer, thermodynamic from solid, solubility
Counter-ions that a name gives are not always drawn.
Observed Property: solubility

solubility in this record for COc1ccc(Cc2nccc3cc(OC)c(OC)cc23)cc1OC [Papaverine, papaverine hydrochloride] : ~36.8 mg/mL
